Recorded values, source the supplement of paper PMC7765376.

system: PEO-1; assay: Excess HSA synergy score (sum over dose matrix of excess over highest single agent) (score (summed % response)); higher = less synergy / more antagonism (negative = synergy); conditions: 72 h; read-out: viability/apoptosis luminescence (CellTiter-Glo or Caspase3-Glo / not stated per table); matrix design: 6x6, 5-fold dilutions (primary screen)
Over roughly 1,500 compounds, “Excess HSA synergy score (sum over dose matrix of excess over highest single agent)” has its median near 43; the lowest 2% begin near -900. Many of the other results were omitted from the sample, so the lowest values are more common in it than they were.
For each entry below, report its Excess HSA synergy score value.
Write the value as a bare number.

Noted for Nc1ccn([C@@H]2CS[C@H](CO)O2)c(=O)n1 [Lamivudine] + CC[C@H](NC(=O)[C@H](C)NC)C(=O)N1C[C@@H](O)C[C@H]1Cc1c(-c2[nH]c3cc(F)ccc3c2C[C@@H]2C[C@H](O)CN2C(=O)[C@H](CC)NC(=O)[C@H](C)NC)[nH]c2cc(F)ccc12 : its Excess HSA synergy score reads 228

So, Nc1ccn([C@@H]2O[C@H](CO)[C@@H](O)[C@H]2O)c(=O)n1 [Cytidine] + CC[C@H](NC(=O)[C@H](C)NC)C(=O)N1C[C@@H](O)C[C@H]1Cc1c(-c2[nH]c3cc(F)ccc3c2C[C@@H]2C[C@H](O)CN2C(=O)[C@H](CC)NC(=O)[C@H](C)NC)[nH]c2cc(F)ccc12 ? Its Excess HSA synergy score was 170

Query Nc1cccc(-c2cc3c(Oc4cccc(O)c4)ncnc3[nH]2)c1 + CC[C@H](NC(=O)[C@H](C)NC)C(=O)N1C[C@@H](O)C[C@H]1Cc1c(-c2[nH]c3cc(F)ccc3c2C[C@@H]2C[C@H](O)CN2C(=O)[C@H](CC)NC(=O)[C@H](C)NC)[nH]c2cc(F)ccc12 yields Excess HSA synergy score of 63.5

Lab book: Excess HSA synergy score of Nc1nc(Cl)nc2c1ncn2[C@@H]1O[C@H](CO)[C@@H](O)[C@@H]1F [Clofarabine] + CC[C@H](NC(=O)[C@H](C)NC)C(=O)N1C[C@@H](O)C[C@H]1Cc1c(-c2[nH]c3cc(F)ccc3c2C[C@@H]2C[C@H](O)CN2C(=O)[C@H](CC)NC(=O)[C@H](C)NC)[nH]c2cc(F)ccc12 noted as -118

Data point: Nc1ccn([C@@H]2O[C@H](CO)[C@@H](O)[C@@H]2O)c(=O)n1 [Cytarabine] + CC[C@H](NC(=O)[C@H](C)NC)C(=O)N1C[C@@H](O)C[C@H]1Cc1c(-c2[nH]c3cc(F)ccc3c2C[C@@H]2C[C@H](O)CN2C(=O)[C@H](CC)NC(=O)[C@H](C)NC)[nH]c2cc(F)ccc12 ; Excess HSA synergy score = -388

In plain terms, O=C(N[C@@H](c1ccccc1)[C@@H]1CCCCN1)c1cccc(C(F)(F)F)c1Cl + CC[C@H](NC(=O)[C@H](C)NC)C(=O)N1C[C@@H](O)C[C@H]1Cc1c(-c2[nH]c3cc(F)ccc3c2C[C@@H]2C[C@H](O)CN2C(=O)[C@H](CC)NC(=O)[C@H](C)NC)[nH]c2cc(F)ccc12 has a documented Excess HSA synergy score of 61.9

Form: compound = CC[C@]12C=CCN3CC[C@@]4(c5cc([C@@]6(C(=O)OC)C[C@@H]7C[C@@H](C(C)(F)F)CN(Cc8c6[nH]c6ccccc86)C7)c(OC)cc5N(C)[C@H]4[C@@](O)(C(=O)OC)[C@@H]1OC(C)=O)[C@@H]32 [Vinflunine] + CC[C@H](NC(=O)[C@H](C)NC)C(=O)N1C[C@@H](O)C[C@H]1Cc1c(-c2[nH]c3cc(F)ccc3c2C[C@@H]2C[C@H](O)CN2C(=O)[C@H](CC)NC(=O)[C@H](C)NC)[nH]c2cc(F)ccc12 ; Excess HSA synergy score = -106

Form field Excess HSA synergy score, entry CC(C)(C)c1[nH]cnc1/C=c1\[nH]c(=O)/c(=C/c2ccccc2)[nH]c1=O [Plinabulin] + CC[C@H](NC(=O)[C@H](C)NC)C(=O)N1C[C@@H](O)C[C@H]1Cc1c(-c2[nH]c3cc(F)ccc3c2C[C@@H]2C[C@H](O)CN2C(=O)[C@H](CC)NC(=O)[C@H](C)NC)[nH]c2cc(F)ccc12 : -109

Value of Excess HSA synergy score reported for the compound Nc1ncnc2c1ncn2[C@@H]1O[C@H](CO)[C@@H](O)[C@H]1O [Adenosine] + CC[C@H](NC(=O)[C@H](C)NC)C(=O)N1C[C@@H](O)C[C@H]1Cc1c(-c2[nH]c3cc(F)ccc3c2C[C@@H]2C[C@H](O)CN2C(=O)[C@H](CC)NC(=O)[C@H](C)NC)[nH]c2cc(F)ccc12 is 270

Sure, the documented Excess HSA synergy score for Cc1ccc(C(=O)N(CCCN)[C@@H](c2nc3cc(Cl)ccc3c(=O)n2Cc2ccccc2)C(C)C)cc1 [Ispinesib] + CC[C@H](NC(=O)[C@H](C)NC)C(=O)N1C[C@@H](O)C[C@H]1Cc1c(-c2[nH]c3cc(F)ccc3c2C[C@@H]2C[C@H](O)CN2C(=O)[C@H](CC)NC(=O)[C@H](C)NC)[nH]c2cc(F)ccc12 is -86.8

CCOC(=O)N1CCN(/[N+]([O-])=N/Oc2ccc([N+](=O)[O-])cc2C#N)CC1 + CC[C@H](NC(=O)[C@H](C)NC)C(=O)N1C[C@@H](O)C[C@H]1Cc1c(-c2[nH]c3cc(F)ccc3c2C[C@@H]2C[C@H](O)CN2C(=O)[C@H](CC)NC(=O)[C@H](C)NC)[nH]c2cc(F)ccc12 has a reported Excess HSA synergy score of 10.9

Recorded Excess HSA synergy score (compound Nc1ncn([C@@H]2O[C@H](CO)[C@@H](O)[C@H]2O)c(=O)n1 [5-Azacitidine] + CC[C@H](NC(=O)[C@H](C)NC)C(=O)N1C[C@@H](O)C[C@H]1Cc1c(-c2[nH]c3cc(F)ccc3c2C[C@@H]2C[C@H](O)CN2C(=O)[C@H](CC)NC(=O)[C@H](C)NC)[nH]c2cc(F)ccc12 ): -38.5

Reported Excess HSA synergy score of CN(C)C(=O)c1ccc(S(=O)(=O)c2ccc(NC(=O)[C@@](C)(O)C(F)(F)F)c(Cl)c2)cc1 + CC[C@H](NC(=O)[C@H](C)NC)C(=O)N1C[C@@H](O)C[C@H]1Cc1c(-c2[nH]c3cc(F)ccc3c2C[C@@H]2C[C@H](O)CN2C(=O)[C@H](CC)NC(=O)[C@H](C)NC)[nH]c2cc(F)ccc12 : 50.1
